- Assay text: Cytotoxicity assay (alamarBlue cell viability)
- Type: cell-based, Human
- Condition: human, A549 cells, 48 h
Listed below: CC50 at 48 h values for each entry.
Measurement type: CC50 at 48 h (µM)

> print(dat)
                                    compound  measurement.type  numeric.readout
 1  CC1CN(C(=O)c2cc3ccccc3o2)CCN1C(=O)Nc1ccccc1[N+](=O)[O-] (stereo not drawn)      CC50 at 48 h              203
 2  CC1CN(C(=O)OC(C)(C)C)CCN1C(=O)Nc1ccc([N+](=O)[O-])cc1 (stereo not drawn)      CC50 at 48 h              143
 3  CC(C)(C)OC(=O)N1CCN(C(=O)Nc2cc(C(F)(F)F)ccc2Cl)C(c2ccccc2)C1 (stereo not drawn)      CC50 at 48 h             93.4
 4  CC(C)(C)OC(=O)N1CCN(C(=O)Nc2ccccc2[N+](=O)[O-])C(c2ccccc2)C1 (stereo not drawn)      CC50 at 48 h             82.2
 5  COc1ccc(NC(=O)N2CCN(C(=O)C(C)(C)C)CC2c2ccccc2)cc1 (stereo not drawn)      CC50 at 48 h              199
 6  COc1ccc(NC(=O)N2CCN(C(=O)OC(C)(C)C)CC2c2ccccc2)cc1 (stereo not drawn)      CC50 at 48 h              133
 7  O=C(c1cc2ccccc2o1)N1CCN(C(=O)Nc2cc(C(F)(F)F)ccc2Cl)C(c2ccccc2)C1 (stereo not drawn)      CC50 at 48 h              131
 8  CC1CN(C(=O)c2cc3ccccc3o2)CCN1C(=O)Nc1ccc(C#N)cc1 (stereo not drawn)      CC50 at 48 h              118
 9  N#Cc1ccc(NC(=O)N2CCN(C(=O)c3cc4ccccc4o3)CC2c2ccccc2)cc1 (stereo not drawn)      CC50 at 48 h              200
10  O=C(c1cc2ccccc2o1)N1CCN(C(=O)Nc2ccc([N+](=O)[O-])cc2)C(c2ccccc2)C1 (stereo not drawn)      CC50 at 48 h              194
11  CC(C)(C)OC(=O)N1CCN(C(=O)Nc2ccc(Cl)c(C(F)(F)F)c2)C(c2ccccc2)C1 (stereo not drawn)      CC50 at 48 h             27.5
12  O=C(c1cc2ccccc2o1)N1CCN(C(=O)Nc2ccc(C(F)(F)F)cc2)C(c2ccccc2)C1 (stereo not drawn)      CC50 at 48 h             70.7
13  CC1CN(C(=O)c2cc3ccccc3o2)CCN1C(=O)Nc1ccc(C(F)(F)F)cc1 (stereo not drawn)      CC50 at 48 h             82.2
14  CC(C)(C)C(=O)N1CCN(C(=O)Nc2ccc(C#N)cc2)C(c2ccccc2)C1 (stereo not drawn)      CC50 at 48 h              147
15  CC(C)(C)OC(=O)N1CCN(C(=O)Nc2ccc(C(F)(F)F)cc2)C(c2ccccc2)C1 (stereo not drawn)      CC50 at 48 h             42.1
16  CC1CN(C(=O)c2ccccc2)CCN1C(=S)Nc1ccc([N+](=O)[O-])cc1 (stereo not drawn)      CC50 at 48 h             31.4
17  CC1CN(C(=O)OC(C)(C)C)CCN1C(=O)Nc1ccc(Cl)cc1 (stereo not drawn)      CC50 at 48 h              150
18  O=C(c1cc2ccccc2o1)N1CCN(C(=O)Nc2ccc(Cl)cc2)C(c2ccccc2)C1 (stereo not drawn)      CC50 at 48 h              194
19  Cc1ccc(NC(=O)N2CCN(C(=O)OC(C)(C)C)CC2c2ccccc2)cc1 (stereo not drawn)      CC50 at 48 h              165
20  CC(C)(C)OC(=O)N1CCN(C(=O)Nc2ccc(Cl)cc2)C(c2ccccc2)C1 (stereo not drawn)      CC50 at 48 h             17.1
21  O=C(c1cc2ccccc2o1)N1CCN(C(=O)Nc2ccc(F)cc2)C(c2ccccc2)C1 (stereo not drawn)      CC50 at 48 h             12.5
22  CC1CN(C(=O)c2cc3ccccc3o2)CCN1C(=O)Nc1ccc([N+](=O)[O-])cc1 (stereo not drawn)      CC50 at 48 h             51.1
23  CC1CN(C(=O)OC(C)(C)C)CCN1C(=O)Nc1ccc(Cl)c(C(F)(F)F)c1 (stereo not drawn)      CC50 at 48 h             20.8
24  CC1CN(C(=O)OC(C)(C)C)CCN1C(=S)Nc1ccc([N+](=O)[O-])cc1 (stereo not drawn)      CC50 at 48 h             26.3
25  CC1CN(C(=O)c2cc3ccccc3o2)CCN1C(=O)Nc1ccc(F)cc1 (stereo not drawn)      CC50 at 48 h              221
26  CC1CN(C(=O)OC(C)(C)C)CCN1C(=O)Nc1cc(C(F)(F)F)ccc1Cl (stereo not drawn)      CC50 at 48 h             63.5
27  CC(C)(C)OC(=O)N1CCN(C(=O)Nc2ccc(C#N)cc2)C(c2ccccc2)C1 (stereo not drawn)      CC50 at 48 h             91.3
28  CC1CN(C(=O)OC(C)(C)C)CCN1C(=O)Nc1ccc(C(F)(F)F)cc1 (stereo not drawn)      CC50 at 48 h              137
29  CC(C)(C)C(=O)N1CCN(C(=O)Nc2ccc([N+](=O)[O-])cc2)C(c2ccccc2)C1 (stereo not drawn)      CC50 at 48 h              102
30  CC1CN(C(=O)c2cc3ccccc3o2)CCN1C(=O)Nc1ccc(Cl)cc1 (stereo not drawn)      CC50 at 48 h              144
31  CC(C)(C)OC(=O)N1CCN(C(=O)Nc2ccc([N+](=O)[O-])cc2)C(c2ccccc2)C1 (stereo not drawn)      CC50 at 48 h              161
32  O=C(c1cc2ccccc2o1)N1CCN(C(=O)Nc2ccccc2[N+](=O)[O-])C(c2ccccc2)C1 (stereo not drawn)      CC50 at 48 h              132
33  CC(C)(C)OC(=O)N1CCN(C(=O)Nc2ccc(F)cc2)C(c2ccccc2)C1 (stereo not drawn)      CC50 at 48 h              110
